- target.desc: T1, Nt.BspD6I (UniProt A3FEV7 1-604)
- T1 sequence: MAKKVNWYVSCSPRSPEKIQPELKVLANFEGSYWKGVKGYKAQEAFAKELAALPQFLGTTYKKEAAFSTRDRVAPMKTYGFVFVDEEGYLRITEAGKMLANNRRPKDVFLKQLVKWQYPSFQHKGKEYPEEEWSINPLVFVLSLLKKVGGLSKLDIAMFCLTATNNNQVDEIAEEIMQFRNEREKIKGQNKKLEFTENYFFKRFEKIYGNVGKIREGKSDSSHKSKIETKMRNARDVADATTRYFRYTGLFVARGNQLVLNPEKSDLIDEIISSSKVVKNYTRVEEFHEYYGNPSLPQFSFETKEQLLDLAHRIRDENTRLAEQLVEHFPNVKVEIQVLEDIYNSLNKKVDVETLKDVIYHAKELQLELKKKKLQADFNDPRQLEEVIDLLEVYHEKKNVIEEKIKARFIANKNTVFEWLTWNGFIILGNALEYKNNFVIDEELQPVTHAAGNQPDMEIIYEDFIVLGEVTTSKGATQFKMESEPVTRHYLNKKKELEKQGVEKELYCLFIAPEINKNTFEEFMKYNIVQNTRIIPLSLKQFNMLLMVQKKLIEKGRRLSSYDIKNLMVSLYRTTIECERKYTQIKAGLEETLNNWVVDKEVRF
- procedure.summary: stopped-flow Trp fluorescence; 0.4 mM EDTA, no divalent metal; Stopped-flow, 37 °C, 10 mM CaCl2 or 10 mM MgCl2 (or 0.4 mM EDTA without divalent metal); 1 µM enzyme (Trp) or 1 µM DNA (FRET); buffer, salt and pH not in the supplied text
- condition.description: blunt
measured.endpoint: Kd (nM)
Return type: number; implicit unit nM.

In: Entry under review: VI-30 (dsDNA) DNA 1: GCGTGGTCTCGAGTCTTCTCAAGGTACCTG DNA 2: CAGGTACCTTGAGAAGACTCGAGACCACGC . Reported Kd?
Out: 13

Data provenance: paper PMC8533099
